- target_or_system: hNPY2R (Homo sapiens, UniProt P49146)
- Construct: expressed in transfected cells; host or cells: HEK-293 cells carrying a CRE-luciferase reporter gene
- Sequence (P49146 whole entry): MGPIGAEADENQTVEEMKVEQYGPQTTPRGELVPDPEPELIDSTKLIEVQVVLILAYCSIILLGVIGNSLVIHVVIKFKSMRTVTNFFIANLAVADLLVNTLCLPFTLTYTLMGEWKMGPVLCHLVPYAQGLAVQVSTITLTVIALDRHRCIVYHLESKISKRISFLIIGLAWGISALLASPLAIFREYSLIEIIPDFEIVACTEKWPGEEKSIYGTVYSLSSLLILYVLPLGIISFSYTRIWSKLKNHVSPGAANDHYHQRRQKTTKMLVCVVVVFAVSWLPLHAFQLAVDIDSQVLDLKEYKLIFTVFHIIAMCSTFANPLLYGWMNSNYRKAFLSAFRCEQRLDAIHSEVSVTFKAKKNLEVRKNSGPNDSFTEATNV
- procedure_summary: hNPY2R CreLuc reporter gene assay in 0.5% and 100% plasma
- Assay type: cell-based
- measurement_context: CreLuc reporter gene assay, 0.5% human plasma; read-out: hNPY2R 0.5% hP
Starred links: 1 amine or outer side, 2 acyl side, 3 side chain; linkers in the order of their positions; H or OH if unused. Non-standard residues stand in square brackets, D forms with d. Groups on a side chain read outwards from the residue. No end group written: not given here. *: point of attachment. C20 diacid = O=C(O)CCCCCCCCCCCCCCCCCCC(=O)*; C18 diacid = O=C(O)CCCCCCCCCCCCCCCCC(=O)*; γGlu = O=C(O)[C@H](CCC(=O)[*:2])N[*:1]; εLys = N[C@@H](CCCCN[*:1])C(=O)[*:2]; NMeR = CN[C@@H](CCCNC(=N)N)C(=O)O; AEEA = NCCOCCOCC(=O)O; Aib = CC(C)(N)C(=O)O
test_readout: pEC50
pEC50 field: float, defined as -log10 of concentration (mol/L).

Please review the entries below; each comes with its answer.
Query string: Request the reported pEC50 associated with H-Y[Aib]EGTFTSDYSI[Aib]LEKQAQ[Aib]EFVQWLIK([γGlu-γGlu-γGlu-γGlu-C20 diacid])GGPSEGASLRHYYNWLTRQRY-NH2 [Compound 194]
Result string: 7.86

Query string: Entry Y[Aib]EGTFTSDYSI[Aib]LEKQAQ[Aib]AFVEWLIK([εLys-γGlu-γGlu-γGlu-γGlu-γGlu-γGlu-γGlu-C20 diacid])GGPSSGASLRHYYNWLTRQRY-NH2 [Compound 225] please
Result string: 7.83

Query string: Entry H-Y[Aib]EGTFTSDYSI[Aib]LEKQAQ[Aib]AFVQWLIK([εLys-γGlu-γGlu-γGlu-γGlu-γGlu-γGlu-C20 diacid])GGPSEGASLRHYYNWLTRQ[NMeR]Y-NH2 [Compound 125] please
Result string: 7.51

Query string: Entry H-Y[Aib]EGTFTSDYSI[Aib]LEKQAQ[Aib]AFVEWLIK([AEEA-AEEA-γGlu-γGlu-γGlu-C18 diacid])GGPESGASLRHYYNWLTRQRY-NH2 [Compound 166] please
Result string: 7.90

Query string: Entry H-Y[Aib]EGTFTSDYSI[Aib]LEKQAQ[Aib]EFVEWLIK([AEEA-AEEA-γGlu-γGlu-γGlu-γGlu-C18 diacid])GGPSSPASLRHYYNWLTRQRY-NH2 [Compound 56] please
Result string: 7.56

Query string: Entry H-Y[Aib]EGTFTSDYSI[Aib]LEKQAQ[Aib]AFVQWLIK([AEEA-AEEA-Glu-Glu-Glu-Glu-C18 diacid])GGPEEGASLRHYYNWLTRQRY-NH2 [Compound 177] please
Result string: 7.73

Query string: Entry H-Y[Aib]EGTFTSDYSI[Aib]LEKQAQ[Aib]AFVQWLIK([γGlu-γGlu-γGlu-γGlu-γGlu-C18 diacid])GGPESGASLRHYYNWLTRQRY-NH2 [Compound 53] please
Result string: 7.88

Query string: Entry Y[Aib]EGTFTSDYSI[Aib]LEKQAQ[Aib]AFVQWLIK([εLys-γGlu-γGlu-γGlu-γGlu-γGlu-γGlu-γGlu-C20 diacid])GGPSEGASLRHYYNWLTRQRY-NH2 [Compound 224] please
Result string: 7.98

Pending substance:
Query string: Request the reported pEC50 associated with H-Y[Aib]EGTFTSDYSI[Aib]LEKQAQ[Aib]AFVEWLIK([εLys-γGlu-γGlu-γGlu-γGlu-γGlu-γGlu-C20 diacid])GGPSSAASLRHYYNWLTRQRY-NH2 [Compound 98]
Result string: 7.82
